Origin of measurements: paper PMC5451161

Target Or Test System: NDM-1 (New Delhi metallo-β-Lactamase) (Klebsiella pneumoniae)
Sequence (C7C422 29-270 limits assumed): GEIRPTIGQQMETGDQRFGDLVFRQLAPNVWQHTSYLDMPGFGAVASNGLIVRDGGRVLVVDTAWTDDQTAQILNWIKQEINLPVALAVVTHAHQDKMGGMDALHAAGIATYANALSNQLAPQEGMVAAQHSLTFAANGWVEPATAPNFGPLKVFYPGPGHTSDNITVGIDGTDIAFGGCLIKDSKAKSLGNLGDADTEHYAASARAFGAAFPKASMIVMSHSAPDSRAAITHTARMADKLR
Property Name: pKi
When answering, recall that pKi equals minus log10 of the concentration in mol/L, and write that number alone.

Enquiry: Request: pKi, test system NDM-1 (New Delhi metallo-β-Lactamase) (Klebsiella pneumoniae), entry COC(=O)[C@@H]1COC2CSC(CS)N21 (stereo partly shown) [4f]
Return: 5.80
